Target: murine SR-BI (Mus musculus, UniProt Q61009)
Construct: expressed in transfected cells; host or cells: ldlA-7 (LDL receptor deficient Chinese hamster ovary cells)
Assay: Uptake of DiI from DiI-HDL by ldlA[mSR-BI] cells (high throughput screen and concentration dependence)
Format: cell-based
Settings: Test 1
property_label: ENDOHDL Test 1
One number for each entry.

Below are worked cases with known answers.
{"molecule": "O=C(Cl)c1ccccc1NS(=O)(=O)/C=C/c1ccccc1 [MIT 9952-110]", "reading": 1.17}
{"molecule": "O=C(/C=C/c1ccccc1)Nc1cccc(Cl)c1Cl", "reading": 0.66}
{"molecule": "O=C(/C=C/c1ccccc1)NC(NC(=S)Nc1cccc([N+](=O)[O-])c1)C(Cl)(Cl)Cl (stereo not drawn) [MIT 9952-7]", "reading": 0.5}
{"molecule": "Cc1ccsc1/C=N/NC(=O)c1cccc([N+](=O)[O-])c1", "reading": 0.46}
{"molecule": "Cn1cc(C=O)c2cc(Br)ccc21", "reading": 0.66}
{"molecule": "O=[N+]([O-])c1cccc(/C=N\\Nc2nc(Nc3ccc(Cl)cc3)nc(N3CCOCC3)n2)c1", "reading": 0.46}

Quick one: give me ENDOHDL Test 1 for each item below, same order please.
1. C=CC[n+]1c(C)n(CC)c2cc(Cl)c(Cl)cc21.[I-]
2. CN1CCc2c(c3ccccc3n2-c2ccccc2)C1.Cl
3. COc1ccc(COCC(Cl)CN2CCCCC2)cc1OC.Cl (stereo not drawn) [MIT 9952-40]

# output
1. 0.54
2. 0.58
3. 1.28

* * *

Biological target: murine SR-BI (Mus musculus, UniProt Q61009)
Construct: expressed in transfected cells; host or cells: ldlA-7 (LDL receptor deficient Chinese hamster ovary cells)
Sequence (Q61009 1-509): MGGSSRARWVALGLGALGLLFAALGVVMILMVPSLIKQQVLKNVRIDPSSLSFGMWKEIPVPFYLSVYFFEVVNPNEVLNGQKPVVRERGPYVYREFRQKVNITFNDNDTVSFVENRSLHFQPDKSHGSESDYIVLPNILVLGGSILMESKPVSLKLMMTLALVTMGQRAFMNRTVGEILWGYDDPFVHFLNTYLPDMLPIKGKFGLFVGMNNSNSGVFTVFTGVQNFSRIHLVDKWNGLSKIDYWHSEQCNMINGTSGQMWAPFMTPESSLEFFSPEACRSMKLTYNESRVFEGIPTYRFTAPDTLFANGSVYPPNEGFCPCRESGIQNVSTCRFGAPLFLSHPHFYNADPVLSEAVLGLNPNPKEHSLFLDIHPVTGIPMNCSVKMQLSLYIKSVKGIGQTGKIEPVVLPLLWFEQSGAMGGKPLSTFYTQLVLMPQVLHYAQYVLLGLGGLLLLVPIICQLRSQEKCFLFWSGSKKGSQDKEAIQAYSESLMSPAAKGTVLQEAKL
Test: Uptake of DiI from DiI-HDL by ldlA[mSR-BI] cells (high throughput screen and concentration dependence)
Assay type: cell-based
Settings: Test 2
Class (by ENDOHDL Test 2) -- group 1 (below 0.5), group 2 (0.5 to below 0.7), group 3 (0.7 or more)

Study these solved cases before continuing.
{"compound": "CCOC(=O)c1c(C)n(-c2ccc(C)cc2)c2ccc(O)cc12 [MIT 9952-73]", "label_class": "group 2"}
{"compound": "C/C(CS(=O)(=O)c1ccc(C)cc1)=N/NC(N)=S [MIT 9952-181]", "label_class": "group 2"}
{"compound": "O=C(NC(NC(=S)Nc1cc(C(F)(F)F)ccc1Cl)C(Cl)(Cl)Cl)c1ccco1 (centres unmarked) [MIT 9952-90]", "label_class": "group 2"}
{"compound": "CCS(=O)(=O)C(=C(Nc1ccc(OC)cc1)Nc1ccc(OC)cc1)S(=O)(=O)CC [MIT 9952-220]", "label_class": "group 3"}
{"compound": "Cc1cc(C(=O)N/C=C\\c2c(Cl)ccc3ccccc23)[nH]n1 [MIT 9952-38]", "label_class": "group 2"}

Attention now turns to another entry.
# input GET /class?item= CCN(CC)CC(=O)Nc1ccc2c(c1)Nc1ccccc1CC2.Cl [MIT 9952-158]
# output group 1

* * *

Target: murine SR-BI (Mus musculus)
Construct: expressed in transfected cells; host or cells: ldlA-7 (LDL receptor deficient Chinese hamster ovary cells)
Assay: Uptake of DiI from DiI-HDL by ldlA[mSR-BI] cells (high throughput screen and concentration dependence)
Format: cell-based
Conditions: Test 2
Task for the reader: assign each of the following compounds its reported ENDOHDL Test 2.
One number for each entry.

# annotated cases, reported ENDOHDL Test 2 shown
{"compound": "O=[N+]([O-])c1cccc(/C=N\\Nc2nc(Nc3ccc(Cl)cc3)nc(N3CCOCC3)n2)c1 [MIT 9952-209]", "property_label": "ENDOHDL Test 2", "reading": 0.59}
{"compound": "CCCCCCC1CCC/C1=N\\NC(N)=S (stereo not drawn) [MIT 9952-53]", "property_label": "ENDOHDL Test 2", "reading": 0.46}
{"compound": "CC[n+]1c(/C=C/SC)ccc2ccccc21 [MIT 9952-260]", "property_label": "ENDOHDL Test 2", "reading": 0.58}

Each compound below has a recorded value; state its ENDOHDL Test 2.
1. CC(C)c1ccc(NC(=O)/C=C/c2cccc([N+](=O)[O-])c2)cc1 [MIT 9952-274]
2. CC1(C)C(C(=O)OCC(=O)c2ccc([N+](=O)[O-])cc2)CCC1C(=O)OCC(=O)c1ccc([N+](=O)[O-])cc1 (stereo not drawn) [MIT 9952-129]
3. CCOc1ccc(NC(=O)/C=C/c2cccc([N+](=O)[O-])c2)cc1 [MIT 9952-255]

# output
0.6
0.54
0.6

For every item in the list below, what is its measured ENDOHDL Test 2?
1. Clc1ccc(/N=C/c2ccc3c(c2)OCO3)nc1 [MIT 9952-176]
2. COc1ccc(N2C(=O)CC(N3CCCCC3)C2=O)cc1 (stereo not drawn) [MIT 9952-16]
3. C=CCN(CC=C)C(=O)Nc1ccccc1 [MIT 9952-251]

# output
1.17
1.26
0.57

* * *

Biological target: murine SR-BI (Mus musculus)
Construct: expressed in transfected cells; host or cells: ldlA-7 (LDL receptor deficient Chinese hamster ovary cells)
Assay: Uptake of DiI from DiI-HDL by ldlA[mSR-BI] cells (high throughput screen and concentration dependence)
Format: cell-based
Conditions: Test 2; DiI uptake from DiI-HDL, compounds at nominal 10 micromolar, ldlA[mSR-BI] cells
property_label: ENDOHDL Test 2
Give bare numbers.

Below are worked cases with known answers.
{"compound": "O=C(O)c1cc(C(=O)O)nc(C(=O)O)c1 [MIT 9952-319]", "ENDOHDL Test 2": 1.17}
{"compound": "NC(=O)N/N=C/c1ccc(-c2ccc([N+](=O)[O-])cc2)o1 [MIT 9952-326]", "ENDOHDL Test 2": 0.53}
{"compound": "O=C(/C=C/c1cccc([N+](=O)[O-])c1)Nc1cccc(Cl)c1 [MIT 9952-291]", "ENDOHDL Test 2": 0.51}
{"compound": "O=C(Nc1ccc(Oc2ccc(Cl)c3cccnc23)c(Cl)c1)c1ccc([N+](=O)[O-])cc1 [MIT 9952-324]", "ENDOHDL Test 2": 0.56}
{"compound": "Cc1ccc(NC(=S)NC(NC(=O)c2ccccc2Cl)C(Cl)(Cl)Cl)cc1 (stereo not drawn) [MIT 9952-332]", "ENDOHDL Test 2": 0.67}

For each entry beneath this line, provide reported ENDOHDL Test 2.
1. [O-][n+]1onc2c3cc(-c4ccccc4)[nH]c3ccc21 [MIT 9952-304]
2. NCC[Se][Se]CCN [MIT 9952-318]
3. O=C(/C=C/c1cccc([N+](=O)[O-])c1)Nc1cccc(C(F)(F)F)c1 [MIT 9952-290]
4. CCn1c2ccccc2c2cc(/C=N/NC(N)=S)ccc21 [MIT 9952-330]

# output
1: 0.44; 2: 0.81; 3: 0.56; 4: 0.56

* * *

Assign ENDOHDL Test 2 to each entry below.
Molecular target: murine SR-BI (Mus musculus, UniProt Q61009)
Construct: expressed in transfected cells; host or cells: ldlA-7 (LDL receptor deficient Chinese hamster ovary cells)
Assay: Uptake of DiI from DiI-HDL by ldlA[mSR-BI] cells (high throughput screen and concentration dependence)
Type: cell-based
Conditions: Test 2; DiI uptake from DiI-HDL, compounds at nominal 10 micromolar, ldlA[mSR-BI] cells
One number for each entry.

{"molecule": "Nc1ccc(C(=O)Nc2ccc(-c3nc4ccc(NC(=O)c5ccc(N)cc5)c(Cl)c4[nH]3)cc2Cl)cc1", "property_label": "ENDOHDL Test 2", "reading": 0.55}
{"molecule": "O=C(Nc1ccc(-c2nc3ccccc3s2)cc1)c1ccc(Cl)cc1Cl", "property_label": "ENDOHDL Test 2", "reading": 0.54}
{"molecule": "Cc1cc(O)nc2cc3oc4ccccc4c3cc12", "property_label": "ENDOHDL Test 2", "reading": 0.86}

Could you report ENDOHDL Test 2 for every entry in the following list?
1. O=C(Nc1ccc(-c2nc3cc(NC(=O)c4ccccc4[N+](=O)[O-])ccc3o2)cc1)c1ccccc1[N+](=O)[O-]
2. Br.Oc1c(Br)cccc1CN(Cc1cc(Br)cc(Br)c1O)C1CCCCC1
3. O=C(NC(NC(=S)Nc1cccc2ccccc12)C(Cl)(Cl)Cl)c1cccc([N+](=O)[O-])c1 (centres unmarked)
4. O=[N+]([O-])c1ccc(-c2sc(/N=C/c3c(O)ccc4ccccc34)nc2-c2ccc(Cl)cc2)cc1
5. CCN1/C(=C\C(=O)c2ccc(C)cc2)Sc2ccccc21

# output
0.54
0.72
0.49
0.64
0.58
